This listing pairs binders with measured apparent Kd (screen).
# target-or-test-system: T1, TNFR1 (Homo sapiens, UniProt P19438)
# T1 chain: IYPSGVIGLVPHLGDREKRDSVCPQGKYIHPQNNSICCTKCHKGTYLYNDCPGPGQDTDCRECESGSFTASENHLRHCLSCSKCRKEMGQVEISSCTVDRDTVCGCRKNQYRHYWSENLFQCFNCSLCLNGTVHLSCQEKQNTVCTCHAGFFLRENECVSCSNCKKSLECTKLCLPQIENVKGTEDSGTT
# experiment: yeast display SC50
Field: numeric (pM). Do not append units.

Some binders with known apparent Kd (screen) results, for comparison:
# binder, experimental-result
data = [
    ("Y22W (designed binder) MTLQELLREEALRRAEAEAFRWALELLAEKFPEQKEYLLDLAEEIESQIRSLSGVDVEDVRKFLDKEWAWVKELLAEHPAELAEVEAARAARLAELRAEVEAKVAA", 490),
    ("E33S (designed binder) MTLQELLREEALRRAEAEAFRYALELLAEKFPSQKEYLLDLAEEIESQIRSLSGVDVEDVRKFLDKEWAWVKELLAEHPAELAEVEAARAARLAELRAEVEAKVAA", 490),
    ("E36Q (designed binder) MTLQELLREEALRRAEAEAFRYALELLAEKFPEQKQYLLDLAEEIESQIRSLSGVDVEDVRKFLDKEWAWVKELLAEHPAELAEVEAARAARLAELRAEVEAKVAA", 490),
    ("A80Q (designed binder) MTLQELLREEALRRAEAEAFRYALELLAEKFPEQKEYLLDLAEEIESQIRSLSGVDVEDVRKFLDKEWAWVKELLAEHPQELAEVEAARAARLAELRAEVEAKVAA", 490),
    ("E5W (designed binder) MTLQWLLREEALRRAEAEAFRYALELLAEKFPEQKEYLLDLAEEIESQIRSLSGVDVEDVRKFLDKEWAWVKELLAEHPAELAEVEAARAARLAELRAEVEAKVAA", 539),
    ("I49F (designed binder) MTLQELLREEALRRAEAEAFRYALELLAEKFPEQKEYLLDLAEEIESQFRSLSGVDVEDVRKFLDKEWAWVKELLAEHPAELAEVEAARAARLAELRAEVEAKVAA", 539),
    ("E99K (designed binder) MTLQELLREEALRRAEAEAFRYALELLAEKFPEQKEYLLDLAEEIESQIRSLSGVDVEDVRKFLDKEWAWVKELLAEHPAELAEVEAARAARLAELRAKVEAKVAA", 539),
]

Please examine the following record next.
// V55G (designed binder) MTLQELLREEALRRAEAEAFRYALELLAEKFPEQKEYLLDLAEEIESQIRSLSGGDVEDVRKFLDKEWAWVKELLAEHPAELAEVEAARAARLAELRAEVEAKVAA : apparent Kd (screen) value = 539
